Target: LTP3 (LTP3-GST) (Arabidopsis thaliana, UniProt Q9LLR7)
Sequence (Q9LLR7 24-115): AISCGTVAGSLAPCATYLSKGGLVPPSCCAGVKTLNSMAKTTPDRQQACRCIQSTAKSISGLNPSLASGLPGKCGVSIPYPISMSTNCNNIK
property: Kd (µM)
Express it in µM; write the number only.

Value sought: Kd, system LTP3 (LTP3-GST) (Arabidopsis thaliana, UniProt Q9LLR7), item Cc1ccc(Nc2ccc3cc(S(=O)(=O)O)ccc3c2)cc1 [TNS, 2-p-toluidinonaphthalene-6-sulphonate] . Result: 9.8

Origin of measurements: paper PMC3617838
